- Test system: HL60 cells
- METHOD_NOTES: AsedaSciences SYSTEMETRIC Cell Health Screen (flow cytometry toxicity profiling)
- CONDITION_NOTES: HL60, 4 h, 5 nM–100 µM, probability 0–1, n = 2
NMI1: Nuclear membrane integrity 1 score values for the molecules below.
EXPERIMENTAL_READOUT: NMI1: Nuclear membrane integrity 1 score

MOLECULE: COc1ccc(/C=C/C(=O)Nc2ccccc2C(=O)O)cc1OC [Tranilast, reference compound]
EXPERIMENTAL_READOUT: NMI1: Nuclear membrane integrity 1 score
OBSERVED_VALUE: 0.73
//
MOLECULE: C#Cc1cc(Nc2ncnc3cc(I)ccc23)ccc1F
EXPERIMENTAL_READOUT: NMI1: Nuclear membrane integrity 1 score
OBSERVED_VALUE: 0.46
//
MOLECULE: C#Cc1cccc(Nc2ncnc3ccc(C#N)cc23)c1
EXPERIMENTAL_READOUT: NMI1: Nuclear membrane integrity 1 score
OBSERVED_VALUE: 0.33
//
MOLECULE: C#Cc1cccc(Nc2ncnc3cc(OC)c(OC)cc23)c1
EXPERIMENTAL_READOUT: NMI1: Nuclear membrane integrity 1 score
OBSERVED_VALUE: 0.47
//
MOLECULE: Cc1ccnc2c1NC(=O)c1cccnc1N2C1CC1 [Nevirapine, reference compound]
EXPERIMENTAL_READOUT: NMI1: Nuclear membrane integrity 1 score
OBSERVED_VALUE: 0.020
